Taken from patent US7741355B2.

- Test system: Parent CHO
- ASSAY_DETAILS: ATP viability assay with non-transfected (parent) CHO cells
- Format: cell-based, Chinese Hamster
- CONDITION_CONTEXT: Cricetulus griseus
pEC50: −log10 of the molar value.
READOUT_NAME: pEC50

>  <SMILES_NOTATION>
COc1ccc2c(c1)n(CCN)c(=O)n2C(=O)[C@@H]1C[C@H](C)CC[C@H]1C(C)C

>  <READOUT_NAME>
pEC50

>  <REPORTED>
< 5.00

$$$$
>  <SMILES_NOTATION>
CC(C)[C@@H]1CC[C@@H](C)C[C@H]1C(=O)Nc1cc(-c2ccccc2)nn1CCN

>  <READOUT_NAME>
pEC50

>  <REPORTED>
< 5.00

$$$$
>  <SMILES_NOTATION>
CC(C)[C@@H]1CC[C@@H](C)C[C@H]1C(=O)n1c(=O)n(CCN)c2ccccc21

>  <READOUT_NAME>
pEC50

>  <REPORTED>
< 5.00

$$$$

====

- TARGET_OF_ASSAY: Trp-p8 (Homo sapiens, UniProt Q7Z2W7, T58I)
- Construct: expressed in transfected cells; host or cells: CHO (Chinese Hamster Ovary) cells
- Sequence (Q7Z2W7 whole entry T58I): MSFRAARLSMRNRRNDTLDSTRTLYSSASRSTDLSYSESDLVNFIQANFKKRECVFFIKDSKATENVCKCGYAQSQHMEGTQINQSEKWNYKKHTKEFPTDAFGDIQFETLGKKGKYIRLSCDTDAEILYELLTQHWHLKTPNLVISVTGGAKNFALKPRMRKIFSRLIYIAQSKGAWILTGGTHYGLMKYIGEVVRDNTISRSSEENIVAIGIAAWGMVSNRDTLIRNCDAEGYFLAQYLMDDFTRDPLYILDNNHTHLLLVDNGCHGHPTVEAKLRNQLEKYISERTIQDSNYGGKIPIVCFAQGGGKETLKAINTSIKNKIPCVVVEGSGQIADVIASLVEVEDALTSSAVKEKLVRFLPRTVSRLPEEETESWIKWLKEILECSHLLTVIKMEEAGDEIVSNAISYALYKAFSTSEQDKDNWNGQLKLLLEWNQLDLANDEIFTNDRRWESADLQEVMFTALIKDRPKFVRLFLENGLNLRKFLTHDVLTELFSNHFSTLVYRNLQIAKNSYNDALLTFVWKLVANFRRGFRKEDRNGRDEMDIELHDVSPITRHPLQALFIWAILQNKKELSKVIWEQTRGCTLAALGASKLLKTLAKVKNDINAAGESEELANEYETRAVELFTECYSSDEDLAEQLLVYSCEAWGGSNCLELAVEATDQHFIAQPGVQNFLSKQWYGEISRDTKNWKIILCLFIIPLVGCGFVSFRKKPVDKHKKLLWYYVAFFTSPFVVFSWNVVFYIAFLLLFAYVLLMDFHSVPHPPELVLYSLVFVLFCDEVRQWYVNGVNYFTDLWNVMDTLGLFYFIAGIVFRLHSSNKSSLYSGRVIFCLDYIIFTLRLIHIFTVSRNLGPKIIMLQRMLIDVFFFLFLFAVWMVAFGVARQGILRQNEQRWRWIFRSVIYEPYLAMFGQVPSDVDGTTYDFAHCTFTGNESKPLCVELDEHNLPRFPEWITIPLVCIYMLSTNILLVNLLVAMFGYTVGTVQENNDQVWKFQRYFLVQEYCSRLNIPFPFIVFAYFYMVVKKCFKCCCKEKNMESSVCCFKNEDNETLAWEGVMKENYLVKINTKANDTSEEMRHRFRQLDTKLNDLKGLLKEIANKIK
- ASSAY_DETAILS: ATP viability assay with CHO/Trp-p8 cells at 37° C.
- Type: cell-based
- CONDITION_CONTEXT: Table 5, Formula I-E; CHO/Trp-p8 cells, 24-26 hours at 37° C., 50% reduction in relative cell viability; read-out: EC50
- From the text: Human Trp-p8 transfected CHO cells (referred to herein as CHO/Trp-p8) were generated for use in experiments of the present invention. […] The concentration of intracellular ATP declines very rapidly when metabolically active cells undergo necrosis and/or apoptosis. The ATP concentration and consequently the relative cell viability can be measured by established methods using commercially available reagents. […]
pEC50: −log10 of the molar value.

>  <COMPOUND>
CC(C)[C@@H]1CC[C@@H](C)C[C@H]1C(=O)n1c(=O)n(CCN)c2cc(OCCCO)ccc21

>  <pEC50>
> 7.70

$$$$
>  <COMPOUND>
CC(C)[C@@H]1CC[C@@H](C)C[C@H]1C(=O)n1c(=O)n(CCN)c2cnccc21

>  <pEC50>
7.30 to 7.68

$$$$
>  <COMPOUND>
CCNC(=O)c1ccc2c(c1)n(CCN)c(=O)n2C(=O)[C@@H]1C[C@H](C)CC[C@H]1C(C)C (stereo in doubt)

>  <pEC50>
> 7.70

$$$$
>  <COMPOUND>
CC(C)[C@@H]1CC[C@@H](C)C[C@H]1C(=O)n1c(=O)n(CCN)c2cc(C(=O)NCCO)ccc21

>  <pEC50>
> 7.70

$$$$
>  <COMPOUND>
CC(C)[C@@H]1CC[C@@H](C)C[C@H]1C(=O)n1c(=O)n(CCN)c2cc(C(=O)Nc3cccnc3)ccc21 (stereo in doubt)

>  <pEC50>
> 7.70

$$$$
>  <COMPOUND>
CC(C)[C@@H]1CC[C@@H](C)C[C@H]1C(=O)n1c(=O)n(CCN)c2cc(OCc3ccccc3)ccc21

>  <pEC50>
7.00 to 7.29

$$$$
>  <COMPOUND>
CC(C)[C@@H]1CC[C@@H](C)C[C@H]1C(=O)n1c(=O)n(CCN)c2cc(C(=O)NCC(N)=O)ccc21

>  <pEC50>
7.00 to 7.29

$$$$

====

- TARGET_OF_ASSAY: Trp-p8 (Homo sapiens, UniProt Q7Z2W7, T58I)
- Construct: expressed in transfected cells; host or cells: CHO (Chinese Hamster Ovary) cells
- ASSAY_DETAILS: ATP viability assay with CHO/Trp-p8 cells at 37° C.
- Type: cell-based
- CONDITION_CONTEXT: Table 2, Formula I-B; CHO/Trp-p8 cells, 24-26 hours at 37° C., 50% reduction in relative cell viability; read-out: EC50
// reported EC50 for each item listed

>  <SMILES_NOTATION>
CC(C)[C@@H]1CC[C@@H](C)C[C@H]1C(=O)Nc1cc(-c2cccn2C)nn1CCN

>  <TARGET_OF_ASSAY>
Trp-p8 (Homo sapiens, UniProt Q7Z2W7, T58I)

>  <EC50>
< 0.02 µM

$$$$
>  <SMILES_NOTATION>
COc1cccc(-c2cc(NC(=O)[C@@H]3C[C@H](C)CC[C@H]3C(C)C)n(CCN)n2)c1

>  <TARGET_OF_ASSAY>
Trp-p8 (Homo sapiens, UniProt Q7Z2W7, T58I)

>  <EC50>
0.021 to 0.05 µM

$$$$
>  <SMILES_NOTATION>
CNCCn1nc(-c2ccccc2)cc1NC(=O)[C@@H]1C[C@H](C)CC[C@H]1C(C)C

>  <TARGET_OF_ASSAY>
Trp-p8 (Homo sapiens, UniProt Q7Z2W7, T58I)

>  <EC50>
0.021 to 0.05 µM

$$$$
>  <SMILES_NOTATION>
CC(C)[C@@H]1CC[C@@H](C)C[C@H]1C(=O)Nc1cc(-c2ccccc2)nn1CCN

>  <TARGET_OF_ASSAY>
Trp-p8 (Homo sapiens, UniProt Q7Z2W7, T58I)

>  <EC50>
< 0.02 µM

$$$$
>  <SMILES_NOTATION>
COC(=O)c1ccc(-c2cc(NC(=O)[C@@H]3C[C@H](C)CC[C@H]3C(C)C)n(CCN)n2)cc1

>  <TARGET_OF_ASSAY>
Trp-p8 (Homo sapiens, UniProt Q7Z2W7, T58I)

>  <EC50>
0.051 to 0.1 µM

$$$$
>  <SMILES_NOTATION>
CC(C)[C@@H]1CC[C@@H](C)C[C@H]1C(=O)Nc1cc(-c2ccc(N)cc2)nn1CCN

>  <TARGET_OF_ASSAY>
Trp-p8 (Homo sapiens, UniProt Q7Z2W7, T58I)

>  <EC50>
0.021 to 0.05 µM

$$$$
>  <SMILES_NOTATION>
CC(C)[C@@H]1CC[C@@H](C)C[C@H]1C(=O)Nc1cc(-c2ccco2)nn1CCN

>  <TARGET_OF_ASSAY>
Trp-p8 (Homo sapiens, UniProt Q7Z2W7, T58I)

>  <EC50>
< 0.02 µM

$$$$
>  <SMILES_NOTATION>
CC(C)[C@@H]1CC[C@@H](C)C[C@H]1C(=O)Nc1cc(-c2ccccc2)nn1CCCN

>  <TARGET_OF_ASSAY>
Trp-p8 (Homo sapiens, UniProt Q7Z2W7, T58I)

>  <EC50>
< 0.02 µM

$$$$

====

// reported pEC50 for each item listed
- TARGET_OF_ASSAY: Trp-p8 (Homo sapiens, UniProt Q7Z2W7, T58I)
- Construct: expressed in transfected cells; host or cells: CHO (Chinese Hamster Ovary) cells
- ASSAY_DETAILS: ATP viability assay with CHO/Trp-p8 cells at 37° C.
- Type: cell-based
- CONDITION_CONTEXT: Table 2, Formula I-B; CHO/Trp-p8 cells, 24-26 hours at 37° C., 50% reduction in relative cell viability; read-out: EC50
pEC50: −log10 of the molar value.

>  <MOLECULE>
CC(C)[C@@H]1CC[C@@H](C)C[C@H]1C(=O)Nc1cc(-c2ccccc2)nn1C[C@@H](C)N [Compound 15]

>  <TARGET_OF_ASSAY>
Trp-p8 (Homo sapiens, UniProt Q7Z2W7, T58I)

>  <pEC50>
> 7.70

$$$$
>  <MOLECULE>
CC(C)[C@@H]1CC[C@@H](C)C[C@H]1C(=O)Nc1cc(-c2cccc(N)c2)nn1CCN [Compound 26]

>  <TARGET_OF_ASSAY>
Trp-p8 (Homo sapiens, UniProt Q7Z2W7, T58I)

>  <pEC50>
7.00 to 7.29

$$$$
>  <MOLECULE>
CC(C)[C@@H]1CC[C@@H](C)C[C@H]1C(=O)Nc1cc(-c2ccccc2)nn1C[C@H](C)N [Compound 22]

>  <TARGET_OF_ASSAY>
Trp-p8 (Homo sapiens, UniProt Q7Z2W7, T58I)

>  <pEC50>
7.30 to 7.68

$$$$
>  <MOLECULE>
CC(C)[C@@H]1CC[C@@H](C)C[C@H]1C(=O)Nc1cc(-c2ccc(O)cc2)nn1CCN [Compound 20]

>  <TARGET_OF_ASSAY>
Trp-p8 (Homo sapiens, UniProt Q7Z2W7, T58I)

>  <pEC50>
7.30 to 7.68

$$$$
>  <MOLECULE>
CC(C)[C@@H]1CC[C@@H](C)C[C@H]1C(=O)Nc1cc(-c2cccc(O)c2)nn1CCN [Compound 27]

>  <TARGET_OF_ASSAY>
Trp-p8 (Homo sapiens, UniProt Q7Z2W7, T58I)

>  <pEC50>
7.00 to 7.29

$$$$
>  <MOLECULE>
CC(C)[C@@H]1CC[C@@H](C)C[C@H]1C(=O)Nc1cc(-c2cccc(C#N)c2)nn1CCN [Compound 23]

>  <TARGET_OF_ASSAY>
Trp-p8 (Homo sapiens, UniProt Q7Z2W7, T58I)

>  <pEC50>
7.30 to 7.68

$$$$
